Source: patent US9283222B2

Biological target: Recombinant Human Poly(ADP-Ribose) Polymerase (PARP), PARP-1 (Homo sapiens (Human))
Sequence (P09874 whole entry): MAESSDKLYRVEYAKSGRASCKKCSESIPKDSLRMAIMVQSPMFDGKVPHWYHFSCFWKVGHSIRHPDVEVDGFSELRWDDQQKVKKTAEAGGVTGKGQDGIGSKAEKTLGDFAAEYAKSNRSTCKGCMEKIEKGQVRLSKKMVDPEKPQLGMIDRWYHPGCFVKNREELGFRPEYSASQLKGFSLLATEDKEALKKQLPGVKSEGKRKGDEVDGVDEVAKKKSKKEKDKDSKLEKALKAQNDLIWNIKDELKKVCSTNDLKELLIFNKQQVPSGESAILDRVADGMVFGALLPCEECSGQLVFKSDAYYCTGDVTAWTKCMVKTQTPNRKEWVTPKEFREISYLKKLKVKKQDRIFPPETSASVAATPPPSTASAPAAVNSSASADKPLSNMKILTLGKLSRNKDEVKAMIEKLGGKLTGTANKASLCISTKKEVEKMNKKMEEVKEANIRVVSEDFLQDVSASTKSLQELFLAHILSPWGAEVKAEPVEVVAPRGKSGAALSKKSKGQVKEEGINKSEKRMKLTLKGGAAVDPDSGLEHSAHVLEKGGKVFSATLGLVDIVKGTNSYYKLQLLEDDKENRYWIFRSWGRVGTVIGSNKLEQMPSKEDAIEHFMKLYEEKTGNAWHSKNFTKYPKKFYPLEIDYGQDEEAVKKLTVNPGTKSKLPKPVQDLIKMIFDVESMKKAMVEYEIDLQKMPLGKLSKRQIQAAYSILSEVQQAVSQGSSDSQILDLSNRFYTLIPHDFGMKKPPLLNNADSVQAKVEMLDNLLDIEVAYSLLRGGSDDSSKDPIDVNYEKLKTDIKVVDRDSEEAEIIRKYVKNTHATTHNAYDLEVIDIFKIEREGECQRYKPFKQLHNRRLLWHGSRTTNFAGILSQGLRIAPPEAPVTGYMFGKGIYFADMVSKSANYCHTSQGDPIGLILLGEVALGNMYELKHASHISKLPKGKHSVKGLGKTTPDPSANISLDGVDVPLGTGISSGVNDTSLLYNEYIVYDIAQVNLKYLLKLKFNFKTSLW
Settings: read-out: PARP-1 (Ki); Table 1; text calls the values EC50s
Experimental Readout: Ki (nM)

Example entries begin here.
Cc1ccc(C(=O)Nc2cccc(Cc3n[nH]c(=O)c4c3CCCC4)c2)s1: 196
COc1ccc(CCC(=O)Nc2cccc(Cc3n[nH]c(=O)c4c3CCCC4)c2)cc1: 51
O=C(NCc1ccsc1)c1cccc(Cc2n[nH]c(=O)c3c2CCCC3)c1: 26
CN(C(=O)C1CCC1)c1cc(Cc2n[nH]c(=O)c3c2CCCC3)ccc1F: 92
O=C(NC1CCN(C(=O)c2cc(Cc3n[nH]c(=O)c4c3NCCC4)ccc2F)CC1)c1cn[nH]c1: 1.4

[P] CCN(CCNC(=O)c1ccccc1)C(=O)c1cc(Cc2n[nH]c(=O)c3c2CCCC3)ccc1F
[Q] O=C(NC1CC1)c1cccc(Cc2n[nH]c(=O)c3c2CCCC3)n1
[R] CC1CCCN1Cc1cccc(-c2cccc(Cc3n[nH]c(=O)c4c3CCCC4)c2)c1 (stereo not drawn)
[S] O=C(c1cccc(Cc2n[nH]c(=O)c3c2CCCC3)c1)N1CCN(CCOCCO)CC1
[T] O=C(NC1CCN(C(=O)c2cscn2)CC1)c1cc(Cc2n[nH]c(=O)c3c2NCCC3)ccc1F
List items by Ki in falling order. Form entry: labels listed in requested order.
Q, R, S, T, P
